Numbers sourced from patent US20250382355A1.

Target: SARS-CoV spike protein on recombinant CHO K1 cells (SARS-CoV, UniProt P59594 14-1255)
Assay: FACS on CHO K1 cells
reportedEndpoint: EC50 (nM)
Please give a number only; it is taken to be in nM.

Answered cases to consult:
5D7 VHH-Fc (Fc fusion) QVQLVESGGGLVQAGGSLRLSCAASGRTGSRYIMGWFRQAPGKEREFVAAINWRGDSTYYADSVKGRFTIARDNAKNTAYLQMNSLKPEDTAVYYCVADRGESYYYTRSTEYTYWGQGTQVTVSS | 0.09
5A6 VHH-Fc (Fc fusion) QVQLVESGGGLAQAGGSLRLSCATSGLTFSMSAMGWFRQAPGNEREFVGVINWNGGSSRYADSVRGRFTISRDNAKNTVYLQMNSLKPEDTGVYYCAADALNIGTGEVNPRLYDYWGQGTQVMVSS | 0.21
1A11 VHH-Fc (Fc fusion) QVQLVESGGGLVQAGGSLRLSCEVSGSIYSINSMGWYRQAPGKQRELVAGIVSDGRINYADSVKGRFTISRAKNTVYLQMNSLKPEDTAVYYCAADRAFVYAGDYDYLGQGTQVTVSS | 0.06

Now, please, on to the next binder.
Ask | Given the entry 15H1 VHH-Fc (Fc fusion) QVQLVESGGGLAQAGGSLRLSCASSGLIFSGSAMGWFRQAPGKEREFVGVISWNGRTTYADSVKGRFTISRDDAVNMVWLQMNNLKPEDTAVYYCAADHLNYGSGDVNPRTYDYWGQGTQVTVSS , report its measured EC50.
Reply | 0.14
